molecular target: hGLP-1R (Homo sapiens, UniProt P43220); assay: cell-based or functional assay
Sequence (P43220 24-463): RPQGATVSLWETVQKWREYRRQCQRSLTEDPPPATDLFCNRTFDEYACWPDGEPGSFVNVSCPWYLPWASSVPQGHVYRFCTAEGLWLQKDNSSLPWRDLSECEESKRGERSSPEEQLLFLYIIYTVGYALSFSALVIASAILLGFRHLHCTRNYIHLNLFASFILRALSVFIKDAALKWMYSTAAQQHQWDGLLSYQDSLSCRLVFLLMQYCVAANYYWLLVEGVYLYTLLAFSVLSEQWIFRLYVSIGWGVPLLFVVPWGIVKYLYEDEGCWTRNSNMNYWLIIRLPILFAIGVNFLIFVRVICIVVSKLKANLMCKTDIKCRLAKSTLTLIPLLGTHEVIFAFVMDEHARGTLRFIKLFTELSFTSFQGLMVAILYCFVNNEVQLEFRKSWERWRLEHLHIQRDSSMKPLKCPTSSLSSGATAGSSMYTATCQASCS
Measure Name: Relative cAMP EC50

[
  {
    "Binder": "YXQGTFTSDFSKXLDKKAQXAFIEYLAAGGPSSGEPPPSGE (synthetic construct; SITE 2: note = 2-Aminoisobutyric Acid; SITE 13: note = alpha-methyl-leucine; SITE 17: note = Lysine is chemically modified through conjugation of the epsilon-amino group of the Lysine side chain with (epsilon-K)2-(gamma-Glu)-CO-(CH2)18-CO2H; SITE 20: note = 2-Aminoisobutyric Aci) [Example 405]",
    "Result": "1.48 nM"
  },
  {
    "Binder": "YXQGTFTSDXSKXLDKKAQXAFIEYLIEAGESSGAPPPSGS (synthetic construct; SITE 2: note = 2-Aminoisobutyric Acid; SITE 10: note = 3-(4-Pyridyl)-L-alanine; SITE 13: note = alpha-methyl-leucine; SITE 17: note = Lysine is chemically modified through conjugation of the epsilon-amino group of the Lysine side chain with (2-[2-(2-Amino-ethoxy)-ethoxy]-acetyl)) [Example 283]",
    "Result": "1.16 nM"
  },
  {
    "Binder": "YXQGTFTSDFSXXLDKKAQXAFIEYLLEAGPSSXAPPPSGT (Lys acylated with AEEA-γGlu-C18 diacid; non-natural residues; C-amide; synthetic construct; SITE 2: note = 2-Aminoisobutyric Acid; SITE 12: note = L-ornithine; SITE 13: note = alpha-methyl-leucine; SITE 17: note = Lysine is chemically modified through conjugation of the epsilon-amino group of the Lysine side chain with (2-[2-(2-Amino-ethoxy)-ethoxy]-acetyl)-(gamma-Glu)) [Example 214]",
    "Result": "1.22 nM"
  },
  {
    "Binder": "YXQGTFTSDFSXXLDKKAQXAFIEWLLEAGSSSGAPPPSGT (synthetic construct; SITE 2: note = 2-Aminoisobutyric Acid; SITE 12: note = L-ornithine; SITE 13: note = alpha-methyl-leucine; SITE 17: note = Lysine is chemically modified through conjugation of the epsilon-amino group of the Lysine side chain with (2-[2-(2-Amino-ethoxy)-ethoxy]-acetyl)-(gamma-Glu)) [Example 263]",
    "Result": "1.32 nM"
  },
  {
    "Binder": "YXQGTXTSDXXIXLDXKAQXEFIEXLVEGGPSSGAPPPTGE (not fully specified; acylated lysine AEEA-γGlu-C18 diacid; non-natural residues; C-terminal amide; synthetic construct; SITE 2: note = 2-Aminoisobutyric Acid; SITE 6: note = alpha-methyl-2-fluoro-L-phenylalanine; SITE 10: note = 3-(4-Pyridyl)-L-alanine; SITE 11: note = alpha-methyl-L-serine; SITE 13: note = alpha-methyl-leucine; SITE 16: note = L-ornithine; SITE 17: note = Lysine is chemically mo) [Example 1152]",
    "Result": "0.371 nM"
  },
  {
    "Binder": "YXQGTXTSDXXIXLDXKAQXXFIEXLIEGGPSSGEPPPEGTGE (synthetic construct; SITE 2: note = 2-Aminoisobutyric Acid; SITE 6: note = alpha-methyl-2-fluoro-L-phenylalanine; SITE 10: note = 3-(4-Pyridyl)-L-alanine; SITE 11: note = alpha-methyl-L-serine; SITE 13: note = alpha-methyl-leucine; SITE 16: note = L-ornithine; SITE 17: note = Lysine is chemically mo) [Example 697]",
    "Result": "0.235 nM"
  }
]
